For ceh-36 (C37E2.4) (Caenorhabditis elegans), measured binding signal (PBM E-score (-0.5 to 0.5)) is reported for the entries below.
Reported Metric: binding signal (PBM E-score (-0.5 to 0.5))

INSERT INTO measurements (item_sequence, measured) VALUES
  ('GGATTAAA (double strand) [8-mer GGATTAAA]', 0.49),
  ('CGGATTAA (double strand) [8-mer CGGATTAA]', 0.489),
  ('GGGGATTA (double strand) [8-mer GGGGATTA]', 0.495),
  ('GCTAATCC (double strand) [8-mer GCTAATCC]', 0.493),
  ('AGGATTAA (double strand) [8-mer AGGATTAA]', 0.492),
  ('CTTAATCC (double strand) [8-mer CTTAATCC]', 0.489),
  ('AGGATTAG (double strand) [8-mer AGGATTAG]', 0.492),
  ('TAATCCTA (double strand) [8-mer TAATCCTA]', 0.492),
  ('ACTAATCC (double strand) [8-mer ACTAATCC]', 0.49),
  ('GCGGATTA (double strand) [8-mer GCGGATTA]', 0.491),
  ('GGATTAAC (double strand) [8-mer GGATTAAC]', 0.49),
  ('GGGATTAA (double strand) [8-mer GGGATTAA]', 0.494),
  ('CTAATCCC (double strand) [8-mer CTAATCCC]', 0.49),
  ('AAGGATTA (double strand) [8-mer AAGGATTA]', 0.492),
  ('ATTAATCC (double strand) [8-mer ATTAATCC]', 0.494);

Source listed as paper PMC4434323.
